// data source = paper PMC6274474

Here the recorded melting point is given for each entry.

compound	melting point
COC(=O)c1c(C)ncc2c1C(=O)C(NC(C(=O)OC)C(C)C)=C(Br)C2=O (stereo not shown) [Compound 13b]	105 to 106.6 °C
COC(=O)c1c(C)ncc2c1C(=O)C(Br)=C(NC(C)C(=O)OC)C2=O (stereo not shown)	120.5 to 122 °C
COC(=O)c1c(C)ncc2c1C(=O)C(N[C@H](Cc1ccccc1)C(=O)OC)=CC2=O [Compound 10b]	71.5 to 73 °C
COC(=O)c1c(C)ncc2c1C(=O)C(N[C@@H](Cc1ccc(O)cc1)C(=O)OC)=CC2=O	76.5 to 78.5 °C
